biological target: Glutamate NMDA receptor; test: Inhibition of [3H]MK-801 binding to N-methyl-D-aspartate glutamate receptor in rat brain cortical membranes.
Category key, based on recorded Ki: b0 = under 200 nM, b1 = from 200 nM up to 1000 nM, b2 = 1000 nM and over

{"Compound": "C=CCN1CCC2(C)c3cccc(O)c3CC1C2(C)C (stereo unspecified)", "Label": "b1"}
{"Compound": "CO[C@H](C)CN1CC[C@@]2(C)c3ccccc3C[C@@H]1C2(C)C", "Label": "b0"}
{"Compound": "CCO[C@@H](C)CN1CC[C@]2(C)c3cc(O)ccc3C[C@@H]1[C@H]2C", "Label": "b2"}
{"Compound": "CO[C@@H](C)CN1CC[C@@]2(C)c3cc(O)ccc3C[C@H]1[C@H]2C", "Label": "b2"}
{"Compound": "CCCN1CC[C@]2(C)c3cc(O)ccc3C[C@@H]1[C@@H]2C", "Label": "b1"}
{"Compound": "CO[C@@H](C)CN1CC[C@]2(C)c3ccc(O)cc3C[C@H]1C2(C)C", "Label": "b1"}
{"Compound": "CO[C@@H](C)CN1CC[C@]2(C)c3cc(O)ccc3C[C@H]1C2(C)C", "Label": "b2"}
{"Compound": "CO[C@H](C)CN1CC[C@]2(C)c3ccc(O)cc3C[C@H]1C2(C)C", "Label": "b1"}
{"Compound": "C=CCN1CCC2(C)c3cc(O)ccc3CC1C2(C)C (stereo unspecified)", "Label": "b1"}
{"Compound": "CS[C@H](C)CN1CC[C@]2(C)c3cc(O)ccc3C[C@@H]1[C@@H]2C", "Label": "b2"}
{"Compound": "C=CCN1CCC2(C)c3c(O)cccc3CC1C2(C)C (stereo unspecified)", "Label": "b0"}
{"Compound": "CC[C@@H](CN1CC[C@]2(C)c3cc(O)ccc3C[C@@H]1[C@H]2C)OC", "Label": "b0"}
{"Compound": "COC(C)(C)CN1CC[C@]2(C)c3cc(O)ccc3C[C@@H]1[C@H]2C", "Label": "b1"}
{"Compound": "CO[C@H](C)CN1CC[C@]2(C)c3cc(O)ccc3C[C@H]1C2(C)C", "Label": "b2"}
{"Compound": "CO[C@H](C)CN1CC[C@@]2(C)c3c(O)cccc3C[C@@H]1C2(C)C", "Label": "b0"}
{"Compound": "CO[C@H](C)CN1CC[C@]2(C)c3cc(O)ccc3C[C@@H]1[C@@H]2C", "Label": "b1"}
{"Compound": "CO[C@@H](C)CN1CC[C@@]2(C)c3ccccc3C[C@@H]1C2(C)C", "Label": "b0"}
{"Compound": "CO[C@@H](C)CN1CC[C@]2(C)c3cc(O)ccc3C[C@@H]1[C@@H]2C", "Label": "b1"}
{"Compound": "C=CCN1CC[C@]2(C)c3cc(O)ccc3C[C@@H]1[C@@H]2C", "Label": "b2"}

* * *

Ki data for Mu-type opioid receptor (Rattus norvegicus, UniProt P33535) follow.

{"Smiles Entry": "CO[C@@H](C)CN1CC[C@@]2(C)c3ccccc3C[C@@H]1C2(C)C", "Tested System": "Mu-type opioid receptor (Rattus norvegicus, UniProt P33535)", "Ki": "144 nM"}
{"Smiles Entry": "CO[C@H](C)CN1CC[C@@]2(C)c3cc(O)ccc3C[C@@H]1C2(C)C", "Tested System": "Mu-type opioid receptor (Rattus norvegicus, UniProt P33535)", "Ki": "108 nM"}
{"Smiles Entry": "CS[C@@H](C)CN1CC[C@]2(C)c3cc(O)ccc3C[C@@H]1[C@H]2C", "Tested System": "Mu-type opioid receptor (Rattus norvegicus, UniProt P33535)", "Ki": "97 nM"}
